- measured on: Histidine--tRNA ligase (Leishmania infantum) (UniProt A4I591)
- test: Leishmania infantum Histidine tRNA synthetase (LdHisRS)
- Format: functional
- Design: scale not given: in the data most compounds retested in dose-response had high values
- condition label: 30 µM
In all, about 69,000 compounds went through this assay and about 420 (0.61%) showed an effect of 50% or more. For the sample, strong results were picked, then their nearest neighbours and some compounds at random.
Exam item: assign 1.0 to entries whose Percent Effect is below 20% and 0.0 to entries at or above 20%. Note that a value of exactly 20% receives 0.0.

# compound, label class
records = [
    ("CCc1ccccc1OCCN(C)C(=O)CN1CCCC1", 0.0),
    ("O=C(NCc1cnn2cccnc12)c1cccc(CC2CCNCC2)c1", 0.0),
    ("O=C(CC1CC1)N[C@@H]1CN(Cc2ccc(F)cc2)C[C@@H]2CCCO[C@@H]21", 1.0),
    ("O[C@]1(c2ccccn2)CC[C@@H]2CN(Cc3cccc4ncccc34)C[C@@H]21", 0.0),
    ("COc1ccc(C(C)C)cc1C1CC(=O)NCc2nc(N(C)C)sc21 (centres undefined)", 0.0),
    ("CCc1cccc(OCCCN(C)C(=O)CN2CCNC2=O)c1", 1.0),
    ("O=C(Nc1cnn(Cc2ccc(F)cc2Cl)c1)C1CC1", 1.0),
    ("COc1cccn(CC(=O)N(C)Cc2ccoc2)c1=O", 0.0),
]

* * *

- measured on: Histidine--tRNA ligase (Leishmania infantum)
- Sequence (whole entry): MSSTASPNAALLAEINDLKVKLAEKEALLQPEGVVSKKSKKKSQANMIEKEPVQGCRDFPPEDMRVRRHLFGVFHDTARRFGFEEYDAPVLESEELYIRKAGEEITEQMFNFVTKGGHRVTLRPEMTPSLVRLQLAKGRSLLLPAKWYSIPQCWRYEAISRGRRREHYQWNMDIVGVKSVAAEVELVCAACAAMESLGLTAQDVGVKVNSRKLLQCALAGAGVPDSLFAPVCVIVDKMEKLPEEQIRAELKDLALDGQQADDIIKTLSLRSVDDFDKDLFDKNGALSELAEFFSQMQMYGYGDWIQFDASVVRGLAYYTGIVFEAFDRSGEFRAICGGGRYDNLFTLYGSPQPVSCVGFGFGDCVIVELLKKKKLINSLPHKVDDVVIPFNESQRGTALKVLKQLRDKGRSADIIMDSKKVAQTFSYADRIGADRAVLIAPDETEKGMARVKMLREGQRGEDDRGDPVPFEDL
- test: Leishmania infantum Histidine tRNA synthetase (LdHisRS)
- Type: functional
- Parameters: scale not given: in the data most compounds retested in dose-response had high values
- condition label: 30 µM
Among all 69,000 compounds or so, about 420 (0.61%) showed an effect of 50% or more. Shown is part of a subset that was picked to be rich in strong results.
Exam item: assign 1 (yes) to entries whose Percent Effect is below 20% and 0 (no) to entries at or above 20%. Note that a value of exactly 20% receives 0 (no).

# compound, label class
rows = [
    ("COCCOc1ncccc1NCc1nc2ccccc2n1C", "1 (yes)"),
    ("CN1CCN(c2cccc(NC(=O)NCc3csc(N(C)C)n3)c2)C1=O", "0 (no)"),
    ("CN(C)C(=O)[C@H]1C[C@@H]2CCN(C3CCOCC3)C[C@@H]2O1", "1 (yes)"),
    ("CC(C)C(=O)N1CC[C@H]2N(C)CC[C@@]2(C(=O)Nc2cccnc2)CC1", "1 (yes)"),
    ("Cn1cc(NS(=O)(=O)c2ccc(C(F)(F)F)cc2)ccc1=O", "0 (no)"),
    ("CC(C)CCC(=O)Nc1ccc2oc(=O)n(CCN(C)C)c2c1", "0 (no)"),
    ("CC(C)Cc1ccc(S(=O)(=O)Nc2ccc(=O)n(C)c2)cc1", "0 (no)"),
    ("CCC(C)C(=O)Nc1ccc2oc(=O)n(CCN(C)C)c2c1 (stereo not given)", "0 (no)"),
    ("CC(C)c1ccc(C(=O)O)cc1S(=O)(=O)Nc1ccc(=O)n(C)c1", "0 (no)"),
    ("Cc1nnc(SC2CCN(c3sccc3C#N)C2=O)[nH]1 (stereo not given)", "1 (yes)"),
    ("COc1ccc(CN2CCO[C@H]3CN(C(=O)C4CC4)CC[C@H]3C2=O)cc1", "1 (yes)"),
    ("CCC(CC)C(=O)Nc1ccc2oc(=O)n(CCN(C)C)c2c1", "1 (yes)"),
    ("CC(=O)Nc1ccc2nc(-c3nccn3CC(C)(C)CO)ccc2c1", "1 (yes)"),
    ("COc1ccc(NC(=O)Cn2nc(C)c(C(C)=O)c2C)cc1", "0 (no)"),
    ("COc1cc(F)c(NCc2nc3ccccc3n2C)cc1OC", "0 (no)"),
    ("CN(C)CCn1c(=O)oc2ccc(NC(=O)CC(C)(C)C)cc21", "0 (no)"),
    ("O=C(NCc1cccs1)[C@]12COC[C@H]1CN(c1ncccn1)C2", "1 (yes)"),
    ("COc1ccc(NC(=O)Cn2nc(C)c(C)cc2=O)cc1OC", "1 (yes)"),
    ("Cc1nc([C@@H]2C[C@@H]3CCN(C(=O)c4ccnnc4)C[C@H]3O2)sc1C", "1 (yes)"),
    ("CCOc1ccc(CN2CCN(CCOC)[C@@H]3CS(=O)(=O)C[C@@H]32)cc1", "0 (no)"),
]

* * *

- measured on: Histidine--tRNA ligase (Leishmania infantum) (UniProt A4I591)
- Sequence (whole entry): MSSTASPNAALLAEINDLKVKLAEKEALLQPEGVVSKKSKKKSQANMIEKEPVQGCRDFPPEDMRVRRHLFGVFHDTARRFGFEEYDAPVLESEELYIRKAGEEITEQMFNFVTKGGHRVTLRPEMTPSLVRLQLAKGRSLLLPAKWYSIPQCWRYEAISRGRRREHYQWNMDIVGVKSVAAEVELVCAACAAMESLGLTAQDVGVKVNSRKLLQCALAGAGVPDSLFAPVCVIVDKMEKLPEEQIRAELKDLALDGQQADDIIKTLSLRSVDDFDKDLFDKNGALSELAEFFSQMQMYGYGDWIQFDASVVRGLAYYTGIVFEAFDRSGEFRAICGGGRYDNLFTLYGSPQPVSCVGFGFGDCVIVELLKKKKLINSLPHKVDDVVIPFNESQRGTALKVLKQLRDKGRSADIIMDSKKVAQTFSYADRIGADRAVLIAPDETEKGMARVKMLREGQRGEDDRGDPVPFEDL
- test: Leishmania infantum Histidine tRNA synthetase (LdHisRS)
- Type: functional
- Set-up: scale not given: in the data most compounds retested in dose-response had high values
- condition label: 30 µM
The campaign covered roughly 69,000 compounds. About 420 (0.61%) showed an effect of 50% or more. This excerpt belongs to a sample that is enriched for strong results.

# smiles repr, Percent Effect, %
records = [
    ("COCc1nc2cc(NCc3sc(C)nc3C)ccc2o1", 79.5),
    ("CNC(=O)[C@H]1C[C@@H]2CN(S(=O)(=O)c3cccc(F)c3)C[C@@H]2N1C", 28.6),
    ("COCc1nc2cc(NCc3scnc3C)ccc2o1", 54.5),
    ("Cc1nc(O)cc(CCNC(=O)CC[C@@H]2CCCN3CCCC[C@H]23)n1", 5.38),
]

# credit: ChEMBL document CHEMBL3988442
